test system: NCI-H322M; test: Growth inhibition of human NCI-H322M cells incubated for 48 hrs by sulforhodamine B assay; type: functional, cell-based; conditions: read-out: pLC50 (the source's name) (converted)
Let's look at some molecules and their measured CC50.

# example entries with known answers
| QUERY SMILES | ASSAYED TARGET | DATA VALUE |
| --- | --- | --- |
| COc1cc(Cl)cc(-c2nn(-c3cccc(NC(=O)Nc4ccc(Cl)c(Cl)c4)c3)cc2-c2ccncc2)c1 | NCI-H322M | > 100 µM |
| COc1cc(Cl)cc(-c2nn(-c3cccc(NC(=O)c4ccc(N5CCOCC5)c(C(F)(F)F)c4)c3)cc2-c2ccncc2)c1 | NCI-H322M | > 100 µM |
| COc1cc(Cl)cc(-c2nn(-c3cccc(NC(=O)Nc4cccc(C(F)(F)F)c4)c3)cc2-c2ccncc2)c1 | NCI-H322M | > 100 µM |
| COc1cc(Cl)cc(-c2nn(-c3cccc(NC(=O)Nc4cc(C(F)(F)F)cc(C(F)(F)F)c4)c3)cc2-c2ccncc2)c1 | NCI-H322M | 46.8 µM |

Shift focus to the following entry.
CC50 measured on COc1cc(Cl)cc(-c2nn(-c3cccc(NC(=O)c4cccc(C(F)(F)F)c4)c3)cc2-c2ccncc2)c1 = > 100 µM
